- tested-system: Glucocorticoid receptor (Homo sapiens)
- method-notes: GR-GFP Redistribution (AID 450); also: potency is read from the fitted curve at half-maximal effect
- details: U2OS GR-GFP nuclear translocation, laser cytometry, 2 h
Calls of active or inactive are those of the source.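 The calls were made as follows: active = compounds whose dose series gives a full or clear partial fitted curve of increased nuclear translocation; inconclusive = weak partial curve or effect only at the top dose; inactive = no dose-dependent translocation response.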
reported-metric: Potency

# compound-string, Potency
records = [
    ("N#Cc1cccc(-c2cncnc2NCc2cccs2)c1", "> 46 µM (inactive)"),
    ("Cc1noc(C)c1-c1cc(NCCN2CCOCC2)ncn1", "> 46 µM (inactive)"),
    ("Cc1nc2cnc(Nc3ccccc3)nc2n(C2CC2)c1=O", "> 9.22 µM (inactive)"),
    ("c1cncc(CNc2nc(-c3ccoc3)nc3ccccc23)c1", "> 46 µM (inactive)"),
    ("COc1ccc2[nH]cc(CCNc3ncnc4ccc(-c5cccnc5)cc34)c2c1", "> 46 µM (inactive)"),
]

List Potency for every entry below, keeping the order given.
1. COc1ccccc1-c1cncnc1NCCc1cnc[nH]1
2. COCCNc1ccnc(-c2ccccc2CN(C)C)n1

> 46 µM (inactive)
> 46 µM (inactive)
